Tested on: 521955-158-R6-J3-PDC complex spheroid growth, % test/control
test.summary: Anticancer human tumor 521955-158-R6-J3-PDC patient-derived pancreatic carcinoma cell line growth inhibition [Asc]
measurement.context: second compound 0.0316 µM; first compound 0.1 µM; active compounds read low
Kindly supply the reported viability, T/C values for the records listed here.

Some entries whose results are on file:
CCN1CCN(Cc2ccc(Nc3ncc(F)c(-c4cc(F)c5nc(C)n(C(C)C)c5c4)n3)nc2)CC1 + CNC(C)C(=O)NC1CN(S(=O)(=O)c2cccc(S(=O)(=O)N3CCC4CCC(C(=O)NC(c5ccccc5)c5ccccc5)N4C(=O)C(NC(=O)C(C)NC)C3)c2)CCC2CCC(C(=O)NC(c3ccccc3)c3ccccc3)N2C1=O; 83.4%
COc1c(OCCCN2CCOCC2)ccc2c3n(c(=NC(=O)c4cnc(N)nc4)nc12)CCN3 + Cc1c(S(C)(=O)=O)c(-c2cc(F)cc(N3CCN(c4ccc(NS(=O)(=O)c5ccc(NC(CCN6CCC(C(=O)OCCCP(=O)(O)O)CC6)CSc6ccccc6)c(S(=O)(=O)C(F)(F)F)c5)cc4)CC3)c2)c(-c2ccc(Cl)cc2)n1C(C)C; 70.2%
Cn1ncnc1[C@H]1c2n[nH]c(=O)c3cc(F)cc(c23)N[C@@H]1c1ccc(F)cc1 + Cc1c(S(C)(=O)=O)c(-c2cc(F)cc(N3CCN(c4ccc(NS(=O)(=O)c5ccc(NC(CCN6CCC(C(=O)OCCCP(=O)(O)O)CC6)CSc6ccccc6)c(S(=O)(=O)C(F)(F)F)c5)cc4)CC3)c2)c(-c2ccc(Cl)cc2)n1C(C)C; 68.9%
C=CC(=O)N1CCN(c2nc(=O)n(-c3c(C)ccnc3C(C)C)c3nc(-c4c(O)cccc4F)c(F)cc23)C(C)C1 (configuration not stated) + CNC(C)C(=O)NC1CN(S(=O)(=O)c2cccc(S(=O)(=O)N3CCC4CCC(C(=O)NC(c5ccccc5)c5ccccc5)N4C(=O)C(NC(=O)C(C)NC)C3)c2)CCC2CCC(C(=O)NC(c3ccccc3)c3ccccc3)N2C1=O; 76.5%
COc1c(OCCCN2CCOCC2)ccc2c3n(c(=NC(=O)c4cnc(N)nc4)nc12)CCN3 + CNC(C)C(=O)NC1CN(S(=O)(=O)c2cccc(S(=O)(=O)N3CCC4CCC(C(=O)NC(c5ccccc5)c5ccccc5)N4C(=O)C(NC(=O)C(C)NC)C3)c2)CCC2CCC(C(=O)NC(c3ccccc3)c3ccccc3)N2C1=O; 49.7%
C=CC(=O)N1CCN(c2nc(=O)n(-c3c(C)ccnc3C(C)C)c3nc(-c4c(O)cccc4F)c(F)cc23)C(C)C1 (configuration not stated) + Cc1c(S(C)(=O)=O)c(-c2cc(F)cc(N3CCN(c4ccc(NS(=O)(=O)c5ccc(NC(CCN6CCC(C(=O)OCCCP(=O)(O)O)CC6)CSc6ccccc6)c(S(=O)(=O)C(F)(F)F)c5)cc4)CC3)c2)c(-c2ccc(Cl)cc2)n1C(C)C; 84%

// next item, viability, T/C requested
Name the reported viability, T/C value associated with the compound O=C(c1cc(Cc2n[nH]c(=O)c3ccccc23)ccc1F)N1CCN(C(=O)C2CC2)CC1 + Cc1c(S(C)(=O)=O)c(-c2cc(F)cc(N3CCN(c4ccc(NS(=O)(=O)c5ccc(NC(CCN6CCC(C(=O)OCCCP(=O)(O)O)CC6)CSc6ccccc6)c(S(=O)(=O)C(F)(F)F)c5)cc4)CC3)c2)c(-c2ccc(Cl)cc2)n1C(C)C
86.6%

###

Consider the following molecules; for each one, report its viability, T/C.
Tested on: 521955-158-R6-J3-PDC complex spheroid growth, % test/control
test.summary: Anticancer human tumor 521955-158-R6-J3-PDC cell line growth inhibition [Asc];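 note: spheroids exposed to compounds for 7 days; 100% = DMSO vehicle control wells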
measurement.context: second compound 0.0316 µM; first compound 1 µM; active compounds read low

O=C(c1cc(Cc2n[nH]c(=O)c3ccccc23)ccc1F)N1CCN(C(=O)C2CC2)CC1 + Cc1c(S(C)(=O)=O)c(-c2cc(F)cc(N3CCN(c4ccc(NS(=O)(=O)c5ccc(NC(CCN6CCC(C(=O)OCCCP(=O)(O)O)CC6)CSc6ccccc6)c(S(=O)(=O)C(F)(F)F)c5)cc4)CC3)c2)c(-c2ccc(Cl)cc2)n1C(C)C; 83.3%

For every record below, what is its viability, T/C?
1. C=C(F)C(=O)N1CCN(c2nc(OCC3CCCN3C)nc3c2CCN(c2cccc4cccc(Cl)c24)C3)CC1CC#N (stereo not drawn) + CNC(C)C(=O)NC1CN(S(=O)(=O)c2cccc(S(=O)(=O)N3CCC4CCC(C(=O)NC(c5ccccc5)c5ccccc5)N4C(=O)C(NC(=O)C(C)NC)C3)c2)CCC2CCC(C(=O)NC(c3ccccc3)c3ccccc3)N2C1=O
2. C=CC(=O)N1CCN(c2nc(=O)n(-c3c(C)ccnc3C(C)C)c3nc(-c4c(O)cccc4F)c(F)cc23)C(C)C1 (stereo not drawn) + CNC(C)C(=O)NC1CN(S(=O)(=O)c2cccc(S(=O)(=O)N3CCC4CCC(C(=O)NC(c5ccccc5)c5ccccc5)N4C(=O)C(NC(=O)C(C)NC)C3)c2)CCC2CCC(C(=O)NC(c3ccccc3)c3ccccc3)N2C1=O

["71.2%", "95.1%"]

###

Tested on: 521955-158-R6-J3-PDC complex spheroid growth, % test/control
test.summary: Anticancer human tumor 521955-158-R6-J3-PDC cell line growth inhibition [Asc]; active means viability on the fitted dose curve at most 10% of control; inactive means the rest;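 note: spheroids exposed to compounds for 7 days; 100% = DMSO vehicle control wells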
measurement.context: second compound 0.0949 µM; first compound 10 µM
Write down the outcome that applies. Available outcomes: active, inactive

Completed entries (count: 3):
O=C(c1cc(Cc2n[nH]c(=O)c3ccccc23)ccc1F)N1CCN(C(=O)C2CC2)CC1 + CCN1C(C(=O)NC23CCC(C(=O)O)(CC2)CC3)C(c2cccc(Cl)c2F)C2(C(=O)Nc3cc(Cl)ccc32)C12CCCCC2; inactive
C#Cc1c(F)ccc2cc(O)cc(-c3ncc4c(N5CC6CCC(C5)N6)nc(OCC56CCCN5CC(F)C6)nc4c3F)c12 (centres undefined) + CCN1C(C(=O)NC23CCC(C(=O)O)(CC2)CC3)C(c2cccc(Cl)c2F)C2(C(=O)Nc3cc(Cl)ccc32)C12CCCCC2; inactive
C=CC(=O)N1CCN(c2nc(=O)n(-c3c(C)ccnc3C(C)C)c3nc(-c4c(O)cccc4F)c(F)cc23)C(C)C1 (centres undefined) + CCN1C(C(=O)NC23CCC(C(=O)O)(CC2)CC3)C(c2cccc(Cl)c2F)C2(C(=O)Nc3cc(Cl)ccc32)C12CCCCC2; inactive

Moving on to another molecule below.
What outcome does the record of this test show for C=C(F)C(=O)N1CCN(c2nc(OCC3CCCN3C)nc3c2CCN(c2cccc4cccc(Cl)c24)C3)CC1CC#N (centres undefined) + CCN1C(C(=O)NC23CCC(C(=O)O)(CC2)CC3)C(c2cccc(Cl)c2F)C2(C(=O)Nc3cc(Cl)ccc32)C12CCCCC2 ?
active

###

Tested on: 521955-158-R6-J3-PDC complex spheroid growth, % test/control
test.summary: Anticancer human tumor 521955-158-R6-J3-PDC cell line growth inhibition [Asc]; active = viability on the fitted dose curve at most 10% of control; inactive = the rest;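 note: spheroids exposed to compounds for 7 days; 100% = DMSO vehicle control wells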
measurement.context: second compound 3.16 µM; first compound 0.316 µM
Respond using exactly one of the listed classes: active, inactive

CNC(C)C(=O)NC1CN(S(=O)(=O)c2cccc(S(=O)(=O)N3CCC4CCC(C(=O)NC(c5ccccc5)c5ccccc5)N4C(=O)C(NC(=O)C(C)NC)C3)c2)CCC2CCC(C(=O)NC(c3ccccc3)c3ccccc3)N2C1=O (stereo not drawn) + Cc1c(S(C)(=O)=O)c(-c2cc(F)cc(N3CCN(c4ccc(NS(=O)(=O)c5ccc(NC(CCN6CCC(C(=O)OCCCP(=O)(O)O)CC6)CSc6ccccc6)c(S(=O)(=O)C(F)(F)F)c5)cc4)CC3)c2)c(-c2ccc(Cl)cc2)n1C(C)C; inactive
C=CC(=O)N1CCN(c2nc(=O)n(-c3c(C)ccnc3C(C)C)c3nc(-c4c(O)cccc4F)c(F)cc23)C(C)C1 (stereo not drawn) + Cc1c(S(C)(=O)=O)c(-c2cc(F)cc(N3CCN(c4ccc(NS(=O)(=O)c5ccc(NC(CCN6CCC(C(=O)OCCCP(=O)(O)O)CC6)CSc6ccccc6)c(S(=O)(=O)C(F)(F)F)c5)cc4)CC3)c2)c(-c2ccc(Cl)cc2)n1C(C)C; inactive

// next entry
State the result this test recorded for C#Cc1c(F)ccc2cc(O)cc(-c3ncc4c(N5CC6CCC(C5)N6)nc(OCC56CCCN5CC(F)C6)nc4c3F)c12 (stereo not drawn) + Cc1c(S(C)(=O)=O)c(-c2cc(F)cc(N3CCN(c4ccc(NS(=O)(=O)c5ccc(NC(CCN6CCC(C(=O)OCCCP(=O)(O)O)CC6)CSc6ccccc6)c(S(=O)(=O)C(F)(F)F)c5)cc4)CC3)c2)c(-c2ccc(Cl)cc2)n1C(C)C .
active

###

System: 521955-158-R6-J3-PDC complex spheroid growth, % test/control
test.summary: Anticancer human tumor 521955-158-R6-J3-PDC cell line growth inhibition [Asc];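 note: spheroids exposed to compounds for 7 days; 100% = DMSO vehicle control wells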
measurement.context: second compound 3.16 µM; first compound 1 µM; active compounds read low
metric: viability, T/C

Quick check: viability, T/C of O=C(c1cc(Cc2n[nH]c(=O)c3ccccc23)ccc1F)N1CCN(C(=O)C2CC2)CC1 + Cc1c(S(C)(=O)=O)c(-c2cc(F)cc(N3CCN(c4ccc(NS(=O)(=O)c5ccc(NC(CCN6CCC(C(=O)OCCCP(=O)(O)O)CC6)CSc6ccccc6)c(S(=O)(=O)C(F)(F)F)c5)cc4)CC3)c2)c(-c2ccc(Cl)cc2)n1C(C)C ?
19.3%
